target: hERG channel (Homo sapiens); construct: expressed in transfected cells; host or cells: CHO (Chinese hamster ovary), CHOhERG; assay: hERG channel inhibition assay (patch-clamp, CHOhERG cells); assay type: cell-based; conditions: safety ratio; >30 suggests sufficient window
Sequence (Q12809 whole entry): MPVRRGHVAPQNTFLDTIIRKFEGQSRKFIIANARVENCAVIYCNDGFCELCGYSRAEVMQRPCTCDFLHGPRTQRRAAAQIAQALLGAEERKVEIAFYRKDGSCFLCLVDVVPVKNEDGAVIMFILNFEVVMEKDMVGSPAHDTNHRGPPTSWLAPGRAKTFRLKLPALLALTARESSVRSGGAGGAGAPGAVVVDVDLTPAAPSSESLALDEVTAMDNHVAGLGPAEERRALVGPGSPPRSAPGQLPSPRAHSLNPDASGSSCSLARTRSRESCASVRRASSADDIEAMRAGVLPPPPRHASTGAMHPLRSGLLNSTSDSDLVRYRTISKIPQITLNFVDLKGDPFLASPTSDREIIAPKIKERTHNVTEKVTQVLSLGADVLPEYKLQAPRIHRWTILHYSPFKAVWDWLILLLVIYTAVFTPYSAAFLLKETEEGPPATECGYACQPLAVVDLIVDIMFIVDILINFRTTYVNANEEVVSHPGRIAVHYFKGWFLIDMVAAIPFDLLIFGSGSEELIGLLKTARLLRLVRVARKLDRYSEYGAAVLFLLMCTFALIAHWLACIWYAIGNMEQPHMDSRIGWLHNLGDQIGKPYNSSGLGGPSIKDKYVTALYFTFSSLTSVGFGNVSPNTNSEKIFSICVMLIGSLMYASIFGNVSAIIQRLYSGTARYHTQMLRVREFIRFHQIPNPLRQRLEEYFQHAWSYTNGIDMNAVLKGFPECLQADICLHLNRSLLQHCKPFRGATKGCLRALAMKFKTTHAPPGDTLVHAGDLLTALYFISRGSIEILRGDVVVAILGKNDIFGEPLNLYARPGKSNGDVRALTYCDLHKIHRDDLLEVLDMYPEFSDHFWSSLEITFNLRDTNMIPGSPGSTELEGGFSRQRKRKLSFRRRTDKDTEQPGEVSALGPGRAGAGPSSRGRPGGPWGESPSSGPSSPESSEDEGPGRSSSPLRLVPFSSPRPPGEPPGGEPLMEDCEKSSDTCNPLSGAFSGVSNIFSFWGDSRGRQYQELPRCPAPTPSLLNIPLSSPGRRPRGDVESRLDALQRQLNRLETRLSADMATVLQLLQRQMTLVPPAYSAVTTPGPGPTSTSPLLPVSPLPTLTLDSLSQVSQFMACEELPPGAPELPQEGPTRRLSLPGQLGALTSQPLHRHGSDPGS
property label: hERG IC20/TLR8 IC50

Record excerpt, results attached:
> print(dat)
                                   compound       property.label   result
1  C[C@@H]1CN(c2ccc(C#N)c3ncccc23)C[C@H](CN2CC(n3cc4c(n3)CN[C@@H](C)C4)C2)O1 (single isomer, unassigned)  hERG IC20/TLR8 IC50   >877.2
2  C[C@@H]1CN(c2ccc(C#N)c3ncccc23)C[C@H](CN2CC(n3cc4c(n3)CNC4)C2)O1  hERG IC20/TLR8 IC50   >531.9
3  C[C@@H]1CN(c2ccc(C#N)c3ncccc23)C[C@H](CN2CC(n3cc4c(n3)CN(C)CC4)C2)O1  hERG IC20/TLR8 IC50  >1653.6

Now for the compound whose hERG IC20/TLR8 IC50 we want.
Task: I'm curious: which hERG IC20/TLR8 IC50 was measured for C[C@@H]1CN(c2ccc(C#N)c3ncccc23)C[C@H](CN2CCN(c3ccc(Cl)cc3)CC2)O1 [Example R2, reference compound] tested on hERG channel (Homo sapiens)?
Output: 0.8

----------
test: Human microsome stability assay; assay type: in vitro ADME; conditions: 1 μM test compound, 0.5 mg/mL liver microsomal protein, 37° C., up to 30 minutes; 6.2 = detection limit
property label: Clearance of Human microsome (L/h/kg)
Write the answer as a number in L/h/kg, unit excluded.

> print(dat)
                                   molecule                property.label     uom  measured.number
1  C[C@@H]1CN(c2ccc(C#N)c3ncccc23)C[C@H](CN2CC(n3ncc4c3CCN[C@@H]4C)C2)O1 [Example 20]  Clearance of Human microsome  L/h/kg            0.372
2  C[C@@H]1CN(c2ccc(C#N)c3ncccc23)C[C@H](CN2CC(n3cc4c(n3)CCN[C@H]4C)C2)O1 [Example 23]  Clearance of Human microsome  L/h/kg            0.372
3  C[C@@H]1CN(c2ccc(C#N)c3ncccc23)C[C@H](CN2CCC(n3ncc4c3CCNC4)CC2)O1 [Example 35]  Clearance of Human microsome  L/h/kg            0.462
4  Cc1c2c(nn1C1CN(C[C@H]3CN(c4ccc(C#N)c5ncccc45)C[C@@H](C)O3)C1)CNCC2 [Example 43]  Clearance of Human microsome  L/h/kg             0.39
5  C[C@@H]1CN(c2ccc(C#N)c3ncccc23)C[C@H](CN2CCC(n3cc4c(n3)CCNC4)CC2)O1 [Example 36]  Clearance of Human microsome  L/h/kg            0.372

Task: Item under review: C[C@@H]1CN(c2ccc(C#N)c3ncccc23)C[C@H](CN2CC(n3cc4c(n3)CCNC4)C2)O1 [Example 2] . Reported Clearance of Human microsome?
Output: 0.372

Task: Same for C[C@@H]1CN(c2ccc(C#N)c3ncccc23)C[C@H](CN2CC(n3cc4c(n3)CCN[C@@H]4C)C2)O1 [Example 21]
Output: 0.372

Task: Input C[C@@H]1CN(c2ccc(C#N)c3ncccc23)C[C@H](CN2CC(n3cc4c(n3)[C@H](C)NCC4)C2)O1 (single isomer, unassigned) [Example 34]
Output: 0.384

Task: Repeat with C[C@@H]1Cc2c(cnn2C2CN(C[C@H]3CN(c4ccc(C#N)c5ncccc45)C[C@@H](C)O3)C2)CN1 [Example 16]
Output: 0.432

Task: Next molecule: C[C@@H]1CN(c2ccc(C#N)c3ncccc23)C[C@H](CN2CC(n3cc4c(n3)CNC4)C2)O1 [Example 11]
Output: 0.372

Task: Now the molecule C[C@@H]1Cc2cn(C3CN(C[C@H]4CN(c5ccc(C#N)c6ncccc56)C[C@@H](C)O4)C3)nc2CN1 (single isomer, unassigned) [Example 30]
Output: 0.372

Each recorded value in this set is attributed to patent US20210300924A1.
